test: Inhibition of PDE3 (unknown origin) by fluorescent based assay; set-up: species or system Homo sapiens
READOUT_KIND: IC50 (nM)
Hi! Could you send only the number? It should be in nM, unit omitted.

Which measured IC50 value corresponds to COCc1nc2c([nH]1)c(=O)n(C)c(=O)n2CC(C)C ?
240

====

// reported IC50 per item
target: Dual specificity calcium/calmodulin-dependent 3',5'-cyclic nucleotide phosphodiesterase 1B (Homo sapiens); test: Inhibition of PDE1B (unknown origin)
Sequence (Q01064 whole entry): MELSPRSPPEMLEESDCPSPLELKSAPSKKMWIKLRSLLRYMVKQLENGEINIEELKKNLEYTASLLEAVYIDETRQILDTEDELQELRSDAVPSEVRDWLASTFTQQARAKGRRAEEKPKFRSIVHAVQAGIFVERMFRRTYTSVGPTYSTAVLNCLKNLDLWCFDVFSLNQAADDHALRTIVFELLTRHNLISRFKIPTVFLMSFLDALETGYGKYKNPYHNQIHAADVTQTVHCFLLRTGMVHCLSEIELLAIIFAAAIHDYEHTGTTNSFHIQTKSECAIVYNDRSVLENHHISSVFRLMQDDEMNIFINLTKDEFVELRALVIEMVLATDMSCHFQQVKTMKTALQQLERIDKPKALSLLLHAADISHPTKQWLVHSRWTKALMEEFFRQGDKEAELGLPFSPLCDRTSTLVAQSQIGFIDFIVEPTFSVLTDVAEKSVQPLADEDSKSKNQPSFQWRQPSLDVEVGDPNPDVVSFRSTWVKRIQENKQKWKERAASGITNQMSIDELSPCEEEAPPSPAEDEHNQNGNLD

COc1ccc(Cn2c(=O)n3ncnc3c3cc(CN4CCCOCC4)sc32)cc1 :: < 100 nM

Now for a further molecule.
Which measured IC50 value corresponds to O=c1c2c(Cc3ccccc3)n[nH]c2c2cccnc2n1-c1ccccc1 ?
790 nM

Values were extracted from ChEMBL document CHEMBL5537126.
